Catalogue of compounds with associated log10 of MIC
Tested on: Pseudomonas aeruginosa
experimental protocol: In vitro antimicrobial activity against Pseudomonas aeruginosa GC 1544 strain
Format: functional
setup conditions: Pseudomonas aeruginosa; read-out: MIC
Remember, log10 of MIC, in µg/mL.

[[record]]
compound = "C[C@@H](O)[C@H]1C(=O)N2C(C(=O)O)=C(S[C@@H]3CCO[C@@H]3CN)[C@H](C)[C@H]12"
value = 1.20

[[record]]
compound = "C[C@@H](N)C(=O)NC[C@@H]1COC[C@@H]1SC1=C(C(=O)O)N2C(=O)[C@H]([C@@H](C)O)C2[C@H]1C (some centres not stated)"
value = 2.11

[[record]]
compound = "C[C@@H](N)C(=O)NC[C@@H]1C[C@H](SC2=C(C(=O)O)N3C(=O)[C@H]([C@@H](C)O)C3[C@H]2C)CO1 (some centres not stated)"
value = 1.81

[[record]]
compound = "CC(C)[C@@H](N)C(=O)NC[C@H]1OCC[C@H]1SC1=C(C(=O)O)N2C(=O)[C@H]([C@@H](C)O)C2[C@H]1C (some centres not stated)"
value = 2.11


Need log10 of MIC of C[C@H](N)C(=O)NC[C@H]1OCC[C@H]1SC1=C(C(=O)O)N2C(=O)[C@H]([C@@H](C)O)C2[C@H]1C (some centres not stated) , thanks. 1.81

Need log10 of MIC of C[C@H]1C(SC2COC(CN)C2)=C(C(=O)O)N2C(=O)[C@H]([C@@H](C)O)C12 (stereo in doubt; trans) , thanks. 0.90

Need log10 of MIC of C[C@H]1C(S[C@@H]2COC[C@@H]2CN)=C(C(=O)O)N2C(=O)[C@H]([C@@H](C)O)C12 (some centres not stated) , thanks. 1.51

---

Test system: Pseudomonas aeruginosa
experimental protocol: In vitro antimicrobial activity against Pseudomonas aeruginosa GC 1544 strain
Format: functional
setup conditions: Pseudomonas aeruginosa; read-out: MIC
Catalogue of molecules with associated MIC
Your answer should be a number followed by the unit of measure.

Before answering, review these 3 worked examples.
[[record]]
molecule = "C[C@@H](N)C(=O)NC[C@H]1OCC[C@H]1SC1=C(C(=O)O)N2C(=O)[C@H]([C@@H](C)O)C2[C@H]1C (some centres undefined)"
value = "64 µg/mL"

[[record]]
molecule = "C[C@@H](N)C(=O)NC[C@@H]1C[C@@H](SC2=C(C(=O)O)N3C(=O)[C@H]([C@@H](C)O)C3[C@H]2C)CO1 (some centres undefined)"
value = "64 µg/mL"

[[record]]
molecule = "CC[C@@H](C)[C@@H](N)C(=O)NC[C@H]1OCC[C@H]1SC1=C(C(=O)O)N2C(=O)[C@H]([C@@H](C)O)C2[C@H]1C (some centres undefined)"
value = "128 µg/mL"


Need MIC of C[C@H]1C(S[C@H]2COC[C@H]2CN)=C(C(=O)O)N2C(=O)[C@H]([C@@H](C)O)C12 (some centres undefined) , thanks. 32 µg/mL

---

Catalogue of compounds with associated MIC
System: Acinetobacter calcoaceticus
experimental protocol: In vitro antimicrobial activity against Acinetobacter calcoaceticus GC 756 strain
Format: functional
setup conditions: Acinetobacter calcoaceticus; read-out: MIC
Your answer should be a number followed by the unit of measure.

For the record CC[C@@H](C)[C@@H](N)C(=O)NC[C@H]1OCC[C@H]1SC1=C(C(=O)O)N2C(=O)[C@H]([C@@H](C)O)C2[C@H]1C (stereo not given in full) , what value of MIC is listed for Acinetobacter calcoaceticus? 64 µg/mL

For the record C[C@H](N)C(=O)NC[C@H]1OCC[C@H]1SC1=C(C(=O)O)N2C(=O)[C@H]([C@@H](C)O)C2[C@H]1C (stereo not given in full) , what value of MIC is listed for Acinetobacter calcoaceticus? 8 µg/mL

For the record C[C@@H](N)C(=O)NC[C@@H]1C[C@@H](SC2=C(C(=O)O)N3C(=O)[C@H]([C@@H](C)O)C3[C@H]2C)CO1 (stereo not given in full) , what value of MIC is listed for Acinetobacter calcoaceticus? 8 µg/mL

For the record C[C@@H](N)C(=O)NC[C@H]1COC[C@H]1SC1=C(C(=O)O)N2C(=O)[C@H]([C@@H](C)O)C2[C@H]1C (stereo not given in full) , what value of MIC is listed for Acinetobacter calcoaceticus? 8 µg/mL

For the record CC(C)[C@@H](N)C(=O)NC[C@H]1OCC[C@H]1SC1=C(C(=O)O)N2C(=O)[C@H]([C@@H](C)O)C2[C@H]1C (stereo not given in full) , what value of MIC is listed for Acinetobacter calcoaceticus? 16 µg/mL

For the record C[C@@H](N)C(=O)NC[C@H]1OCC[C@H]1SC1=C(C(=O)O)N2C(=O)[C@H]([C@@H](C)O)C2[C@H]1C (stereo not given in full) , what value of MIC is listed for Acinetobacter calcoaceticus? 16 µg/mL

For the record C[C@@H](N)C(=O)NC[C@@H]1COC[C@@H]1SC1=C(C(=O)O)N2C(=O)[C@H]([C@@H](C)O)C2[C@H]1C (stereo not given in full) , what value of MIC is listed for Acinetobacter calcoaceticus? 16 µg/mL

For the record C[C@H]1C(S[C@@H]2CCO[C@@H]2CNC(=O)[C@H](N)Cc2ccccc2)=C(C(=O)O)N2C(=O)[C@H]([C@@H](C)O)C12 (stereo not given in full) , what value of MIC is listed for Acinetobacter calcoaceticus? 64 µg/mL
